# target_system: HLA B*1503 (Homo sapiens, UniProt P01889, A329T/A93T/A95T/C349S/D201E/D98Y/E187L/E204Q/K202T/N87E/Q94N/R155S/R180L/S121R/S35A/V306I/V36M/Y140S/Y91S)
# assay: biochemical
# Type: binding
test_readout: Normalized average relative binding affinity(ARB)
Form field (numeric): enter value without unit.

Past entries and their recorded results:
seq_string	obs_value
XXXXGXXXX [3064.0086]	0.65
XXXYXXXXX [3064.0080]	0.55
XXXNXXXXX [3064.0072]	0.76
XXXXXXXQX [3064.0154]	0.19
XXXXXVXXX [3064.0118]	0.78

Request the reported Normalized average relative binding affinity(ARB) associated with XXXXXAXXX [3064.0101]
0.45

Request the reported Normalized average relative binding affinity(ARB) associated with XXXXXXXWX [3064.0159]
0.13

Request the reported Normalized average relative binding affinity(ARB) associated with XXXXXMXXX [3064.0111]
0.43

Request the reported Normalized average relative binding affinity(ARB) associated with XXXXXXGXX [3064.0126]
0.12

Request the reported Normalized average relative binding affinity(ARB) associated with XXXPXXXXX [3064.0073]
0.67

Data origin, for the record: paper PMC2248166
